The origin of these recorded values is BindingDB's records for doi:10.1016/j.ejmech.2020.112417.

tgt: Nucleotide-binding oligomerization domain-containing protein 2 (Homo sapiens)
Sequence (Q9HC29 whole entry, the tested form may be a part): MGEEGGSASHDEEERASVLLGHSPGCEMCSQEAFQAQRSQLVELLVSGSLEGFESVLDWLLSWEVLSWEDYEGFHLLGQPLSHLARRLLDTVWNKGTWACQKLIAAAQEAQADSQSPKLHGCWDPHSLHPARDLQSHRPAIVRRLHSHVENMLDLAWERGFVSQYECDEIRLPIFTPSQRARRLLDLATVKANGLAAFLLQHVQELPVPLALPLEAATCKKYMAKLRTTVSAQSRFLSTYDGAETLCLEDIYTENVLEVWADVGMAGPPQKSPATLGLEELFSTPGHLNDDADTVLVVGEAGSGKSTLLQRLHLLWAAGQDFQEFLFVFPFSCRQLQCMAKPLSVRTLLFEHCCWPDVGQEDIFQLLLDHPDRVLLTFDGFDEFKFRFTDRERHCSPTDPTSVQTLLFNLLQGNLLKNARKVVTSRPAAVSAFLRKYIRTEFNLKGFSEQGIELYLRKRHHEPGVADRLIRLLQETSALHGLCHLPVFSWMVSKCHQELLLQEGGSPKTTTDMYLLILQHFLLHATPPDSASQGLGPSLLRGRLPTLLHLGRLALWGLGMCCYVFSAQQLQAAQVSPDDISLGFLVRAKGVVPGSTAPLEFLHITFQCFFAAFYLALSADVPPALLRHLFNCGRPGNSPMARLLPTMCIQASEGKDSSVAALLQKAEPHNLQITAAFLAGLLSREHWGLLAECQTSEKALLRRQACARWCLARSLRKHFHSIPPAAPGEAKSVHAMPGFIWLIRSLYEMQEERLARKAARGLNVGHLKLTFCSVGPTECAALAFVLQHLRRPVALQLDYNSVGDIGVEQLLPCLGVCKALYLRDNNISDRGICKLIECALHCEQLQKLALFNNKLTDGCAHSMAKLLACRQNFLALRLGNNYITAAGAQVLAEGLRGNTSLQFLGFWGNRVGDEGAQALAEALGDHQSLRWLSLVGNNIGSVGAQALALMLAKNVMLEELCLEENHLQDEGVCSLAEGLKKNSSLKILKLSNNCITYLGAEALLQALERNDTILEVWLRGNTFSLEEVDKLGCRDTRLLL
protocolNotes: Inhibition of human NOD2 expressed in HEK293 cells coexpressing NFkappaB-SEAP reporter measured after 7 to 9 hrs by HEKBIue reporter assay
measurementLabel: pIC50
# pIC50 = -log10(concentration in molar units)

Example results:
Task: For `CC(C)Oc1cc(NS(=O)(=O)C(C)C)cc(-c2cc(-c3ccc(N4CCNCC4)cc3)cnc2N)c1` , what is its reported pIC50?
Result: 6.49

Task: I am curious: what pIC50 value has been reported for `CCCS(=O)(=O)Nc1cc(-c2cc(-c3ccc(N4CCNCC4)cc3)cnc2N)cc(OC)c1OC` ?
Result: 9.00

Task: pIC50 for `COc1cc(NS(=O)(=O)C(C)C)cc(-c2cc(-c3ccc(N4CCNCC4)cc3)cnc2N)c1` ?
Result: 6.92

Task: Which pIC50 is reported for this molecule? `CCOc1cc(NS(=O)(=O)C(C)C)cc(-c2cc(-c3ccc(N4CCNCC4)cc3)cnc2N)c1`
Result: 7.34

Task: May I ask what pIC50 has been recorded for `CCCS(=O)(=O)Nc1cc(-c2cc(-c3ccc(N4CCNCC4)cc3)cnc2N)cc(OC)c1C` ?
Result: 5.48

Task: Which value of pIC50 has been reported for `CCCS(=O)(=O)N1CCOc2ccc(-c3cc(-c4ccc(N5CCNCC5)cc4)cnc3N)cc21` in the records?
Result: 6.00

Further cases:
Task: Please look up its pIC50: `CCCS(=O)(=O)Nc1cc(-c2cc(-c3cccc(N4CCNCC4)c3)cnc2N)cc(F)c1OC`
Result: 7.80

Task: Suppose we examine the molecule `CCCS(=O)(=O)Nc1cc(-c2cc(-c3ccc(N4CCNCC4)cc3)cnc2N)cc(Cl)c1OC` ; what pIC50 value has been reported?
Result: 7.34
